# ASSAY_SYSTEM: HLA-A*24:03
# METHOD_SUMMARY: IEDB peptide-MHC binding, purified MHC/direct/fluorescence; filed as Kd, often an IC50 or EC50 that approximates it; bounds were set here for any values at or beyond the usual limits of such assays
# CONDITION: source organism: Mycobacterium tuberculosis
pKd: −log10 of the molar value.

| SEQ_STRING | pKd |
| --- | --- |
| RYVGLYLPF | 9.70 |

###

# ASSAY_SYSTEM: HLA-A*02:11
# METHOD_SUMMARY: IEDB peptide-MHC binding, purified MHC/direct/fluorescence; filed as Kd, often an IC50 or EC50 that approximates it; bounds were set here for any values at or beyond the usual limits of such assays
# CONDITION: source organism: Limestone Canyon virus

| SEQ_STRING | Kd |
| --- | --- |
| KLKSVGKAY | ≥ 20 µM |
